Hello, the source for this data is ChEMBL document CHEMBL1165950, in case you need it.

System: SK-MEL-5
Test: Growth inhibition of human SK-MEL-5 cells after 48 hrs by sulforhodamine B assay
Format: functional
Settings: SK-MEL-5, 48 h
VALUE KIND: TGI

>>> df
                              line_notation  value_kind    result
0  COc1cc(C)cc(-c2c(-c3ccnc(-c4ccc(C(C)=O)cc4)c3)cnn2CC#N)c1         TGI   4.96 µM
1  COc1cc(C)cc(-c2nn(CC#N)cc2-c2ccnc(-c3ccc(N(C)C)cc3)c2)c1         TGI  0.672 µM
2  COc1cc(C)cc(-c2nn(CC#N)cc2-c2ccc(-c3cccc(C(C)=O)c3)nc2)c1         TGI   6.79 µM
3  COc1cc(C)cc(-c2c(-c3ccnc(-c4ccc(N(C)C)cc4)c3)cnn2CC#N)c1         TGI  0.309 µM
4  Cc1cc(O)cc(-c2nn(CC#N)cc2-c2ccnc(-c3ccc(N(C)C)cc3)c2)c1         TGI   5.75 µM
5  Cc1cc(O)cc(-c2nn(CC#N)cc2-c2ccnc(-c3ccc(Oc4ccccc4)cc3)c2)c1         TGI    9.9 µM

----------
Overview of reported growth at 0.1 µM across a group of compounds:
Tested on: UACC-62
Assay: Cytotoxicity against human UACC62 cells assessed as cell growth at 100 nM after 48 hrs by sulforhodamine B assay
Format: functional
Settings: UACC-62, 48 h, read-out: Activity
VALUE KIND: growth at 0.1 µM (%)

In [3]: df
Out[3]:
                              line_notation  numeric_result
0  COc1cc(C)cc(-c2c(-c3ccnc(-c4ccc(C(C)=O)cc4)c3)cnn2CC#N)c1              89
1  COc1cc(C)cc(-c2c(-c3ccnc(-c4ccc(N(C)C)cc4)c3)cnn2CC#N)c1              37
2  COc1cc(C)cc(-c2nn(CC#N)cc2-c2ccc(-c3cccc(C(C)=O)c3)nc2)c1              71
3  Cc1cc(O)cc(-c2nn(CC#N)cc2-c2ccnc(-c3ccc(Oc4ccccc4)cc3)c2)c1              84
4  Cc1cc(O)cc(-c2nn(CC#N)cc2-c2ccnc(-c3ccc(N(C)C)cc3)c2)c1              87
5  COc1cc(C)cc(-c2nn(CC#N)cc2-c2ccnc(-c3ccc(N(C)C)cc3)c2)c1              18

----------
Test system: M14
Assay: Growth inhibition of human M14 cells after 48 hrs by sulforhodamine B assay
Type: functional
Details: M14, 48 h, read-out: LC50 (the source's name)
Item-by-item account of CC50
VALUE KIND: CC50 (µM)

>>> print(df.to_string())
                              line_notation  comparison_operator  numeric_result
0  COc1cc(C)cc(-c2nn(CC#N)cc2-c2ccnc(-c3ccc(N(C)C)cc3)c2)c1                    >             100
1  COc1cc(C)cc(-c2c(-c3ccnc(-c4ccc(N(C)C)cc4)c3)cnn2CC#N)c1                    >             100
2  Cc1cc(O)cc(-c2nn(CC#N)cc2-c2ccnc(-c3ccc(Oc4ccccc4)cc3)c2)c1                    =            5.73
3  Cc1cc(O)cc(-c2nn(CC#N)cc2-c2ccnc(-c3ccc(N(C)C)cc3)c2)c1                    =            20.4
4  COc1cc(C)cc(-c2c(-c3ccnc(-c4ccc(C(C)=O)cc4)c3)cnn2CC#N)c1                    >             100

----------
Tested on: M14
Assay: Growth inhibition of human M14 cells after 48 hrs by sulforhodamine B assay
Type: functional
Settings: M14, 48 h
VALUE KIND: TGI (µM)

>>> df
                              line_notation  tested_on  numeric_result
0  Cc1cc(O)cc(-c2nn(CC#N)cc2-c2ccnc(-c3ccc(N(C)C)cc3)c2)c1        M14            4.76
1  COc1cc(C)cc(-c2c(-c3ccnc(-c4ccc(N(C)C)cc4)c3)cnn2CC#N)c1        M14           0.483
2  COc1cc(C)cc(-c2nn(CC#N)cc2-c2ccc(-c3cccc(C(C)=O)c3)nc2)c1        M14             3.3
3  COc1cc(C)cc(-c2nn(CC#N)cc2-c2ccnc(-c3ccc(N(C)C)cc3)c2)c1        M14           0.769
4  Cc1cc(O)cc(-c2nn(CC#N)cc2-c2ccnc(-c3ccc(Oc4ccccc4)cc3)c2)c1        M14            3.12

----------
Test system: U-251
Assay: Growth inhibition of human U251 cells after 48 hrs by sulforhodamine B assay
Format: functional
Conditions: U-251, 48 h
TGI values, listed per item
VALUE KIND: TGI (µM)

>>> df
                              line_notation  comparison_operator  numeric_result
0  COc1cc(C)cc(-c2nn(CC#N)cc2-c2ccnc(-c3ccc(N(C)C)cc3)c2)c1                    =            5.86
1  Cc1cc(O)cc(-c2nn(CC#N)cc2-c2ccnc(-c3ccc(Oc4ccccc4)cc3)c2)c1                    =            2.99
2  COc1cc(C)cc(-c2nn(CC#N)cc2-c2ccc(-c3cccc(C(C)=O)c3)nc2)c1                    =            13.5
3  COc1cc(C)cc(-c2c(-c3ccnc(-c4ccc(N(C)C)cc4)c3)cnn2CC#N)c1                    >             100
4  Cc1cc(O)cc(-c2nn(CC#N)cc2-c2ccnc(-c3ccc(N(C)C)cc3)c2)c1                    =            12.9
5  COc1cc(C)cc(-c2c(-c3ccnc(-c4ccc(C(C)=O)cc4)c3)cnn2CC#N)c1                    >             100

----------
# growth at 0.01 µM per entry
Test system: U-251
Test: Cytotoxicity against human U251 cells assessed as cell growth at 0.01 uM after 48 hrs by sulforhodamine B assay
Type: functional
Details: U-251, 48 h, read-out: Activity
VALUE KIND: growth at 0.01 µM (%)

>>> df
                              line_notation  numeric_result
0  COc1cc(C)cc(-c2nn(CC#N)cc2-c2ccnc(-c3ccc(N(C)C)cc3)c2)c1             105
1  COc1cc(C)cc(-c2nn(CC#N)cc2-c2ccc(-c3cccc(C(C)=O)c3)nc2)c1              92
2  Cc1cc(O)cc(-c2nn(CC#N)cc2-c2ccnc(-c3ccc(Oc4ccccc4)cc3)c2)c1              92
3  COc1cc(C)cc(-c2c(-c3ccnc(-c4ccc(N(C)C)cc4)c3)cnn2CC#N)c1              41
4  Cc1cc(O)cc(-c2nn(CC#N)cc2-c2ccnc(-c3ccc(N(C)C)cc3)c2)c1              94
5  COc1cc(C)cc(-c2c(-c3ccnc(-c4ccc(C(C)=O)cc4)c3)cnn2CC#N)c1              89

----------
// reported CC50 per item
System: OVCAR-5
Assay: Growth inhibition of human OVCAR5 cells after 48 hrs by sulforhodamine B assay
Type: functional
Conditions: OVCAR-5, 48 h, read-out: LC50 (the source's name)
VALUE KIND: CC50

In [3]: df
Out[3]:
                              line_notation    result
0  COc1cc(C)cc(-c2c(-c3ccnc(-c4ccc(C(C)=O)cc4)c3)cnn2CC#N)c1  > 100 µM
1  Cc1cc(O)cc(-c2nn(CC#N)cc2-c2ccnc(-c3ccc(Oc4ccccc4)cc3)c2)c1   48.3 µM
2  Cc1cc(O)cc(-c2nn(CC#N)cc2-c2ccnc(-c3ccc(N(C)C)cc3)c2)c1  > 100 µM
3  COc1cc(C)cc(-c2nn(CC#N)cc2-c2ccnc(-c3ccc(N(C)C)cc3)c2)c1  > 100 µM
4  COc1cc(C)cc(-c2nn(CC#N)cc2-c2ccc(-c3cccc(C(C)=O)c3)nc2)c1  > 100 µM
5  COc1cc(C)cc(-c2c(-c3ccnc(-c4ccc(N(C)C)cc4)c3)cnn2CC#N)c1  > 100 µM
